Recorded inhibition of growth at 10 µM for the following compounds
# Tested on: A549
# assay-protocol: Antiproliferative activity against human A549 cells assessed as growth inhibition at 10 uM after 72 hrs by MTT assay relative to control
# Assay type: functional
# condition-summary: read-out: GI
endpoint-label: inhibition of growth at 10 µM

1. O=C(c1ccc(-c2ccc(OC(F)(F)F)cc2)c([N+](=O)[O-])c1)C(Cl)Cl = 93.6%
2. Cc1ccc(Nc2ccc(C(=O)C(Cl)Cl)cc2[N+](=O)[O-])cc1 = 97.3%
3. CC(C)(CO)c1ccc(Nc2ccc(C(=O)C(Cl)Cl)cc2[N+](=O)[O-])cc1 = 98.6%
4. O=C(c1ccc(-c2ccsc2)c([N+](=O)[O-])c1)C(Cl)Cl = 94.4%
5. O=C(c1ccc(C2CC2)c([N+](=O)[O-])c1)C(Cl)Cl = 95.9%
6. O=C(c1ccc(-n2ccnc2[N+](=O)[O-])c([N+](=O)[O-])c1)C(Cl)Cl = 80.9%
7. O=C(c1ccccc1)C(Cl)Cl = 55.2%
8. CC(C)c1ccc(Sc2ccc(C(=O)C(Cl)Cl)cc2[N+](=O)[O-])cc1 = 76.3%
9. O=C(c1ccc(-n2cncn2)c([N+](=O)[O-])c1)C(Cl)Cl = 58.9%
10. Cc1ccc(-c2ccc(C(=O)C(Cl)Cl)cc2[N+](=O)[O-])cc1 = 96%
11. O=C(c1ccc(N2CCCC2)c([N+](=O)[O-])c1)C(Cl)Cl = 97.3%
12. CC(C)c1ccc(Oc2ccc(C(=O)C(Cl)Cl)cc2[N+](=O)[O-])cc1 = 90.7%
13. O=C(c1ccc(Nc2ccc(F)cc2)c([N+](=O)[O-])c1)C(Cl)Cl = 98.9%
14. CN(C)c1ccc(Nc2ccc(C(=O)C(Cl)Cl)cc2[N+](=O)[O-])cc1 = 98.6%
15. O=C(c1ccc(-c2ccc(F)cc2)c([N+](=O)[O-])c1)C(Cl)Cl = 95.3%
16. CC(C)(C)c1ccc(Nc2ccc(C(=O)C(Cl)Cl)cc2[N+](=O)[O-])cc1 = 93.2%
17. O=C(c1ccc(-c2ccccc2)c([N+](=O)[O-])c1)C(Cl)Cl = 92.6%
18. COc1ccc(Nc2ccc(C(=O)C(Cl)Cl)cc2[N+](=O)[O-])cc1 = 97.7%
19. CCOc1ccc(Nc2ccc(C(=O)C(Cl)Cl)cc2[N+](=O)[O-])cc1 = 97.4%
20. COc1ccc(Nc2ccc(C(=O)C(Cl)Cl)cc2[N+](=O)[O-])cc1OC = 96.6%
21. O=C(c1ccc(N2CCNCC2)c([N+](=O)[O-])c1)C(Cl)Cl = 93.1%
22. O=C(c1ccc(N2CCOCC2)c([N+](=O)[O-])c1)C(Cl)Cl = 95.6%
23. CC(C)c1ccc(Nc2ccc(C(=O)C(Cl)Cl)cc2[N+](=O)[O-])cc1 = 97%
24. CC(C)Oc1ccc(C(=O)C(Cl)Cl)cc1[N+](=O)[O-] = 98.2%
25. O=C(c1ccc(Nc2ccccc2)c([N+](=O)[O-])c1)C(Cl)Cl = 97.4%
26. O=C(c1ccc(NC2CC2)c([N+](=O)[O-])c1)C(Cl)Cl = 95.7%

* * *

# target-under-test: [Pyruvate dehydrogenase (acetyl-transferring)] kinase isozyme 3, mitochondrial (Homo sapiens)
# Sequence (Q15120 whole entry): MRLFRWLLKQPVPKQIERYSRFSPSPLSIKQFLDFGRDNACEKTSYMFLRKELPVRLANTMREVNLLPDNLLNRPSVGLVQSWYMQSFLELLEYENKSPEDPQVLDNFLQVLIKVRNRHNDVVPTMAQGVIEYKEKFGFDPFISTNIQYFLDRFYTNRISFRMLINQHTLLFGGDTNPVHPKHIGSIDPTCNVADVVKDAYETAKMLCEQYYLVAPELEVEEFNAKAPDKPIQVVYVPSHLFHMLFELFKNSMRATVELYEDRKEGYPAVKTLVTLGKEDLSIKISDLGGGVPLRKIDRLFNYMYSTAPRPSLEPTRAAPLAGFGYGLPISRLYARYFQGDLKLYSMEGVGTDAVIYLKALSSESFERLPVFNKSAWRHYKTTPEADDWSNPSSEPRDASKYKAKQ
endpoint-label: Kd (µM)

1) CC(C)(CO)c1ccc(Nc2ccc(C(=O)C(Cl)Cl)cc2[N+](=O)[O-])cc1 = 7.8
